Documented t1/2 across a set of binders
Target: T1, hPDGFRb.mmh (human, UniProt P09619 33-531)
T1 construct: Soluble monomeric construct; also called soluble human PDGFR-beta.mmh
T1 sequence (P09619 other isoform, or with tags, fused parts or gaps): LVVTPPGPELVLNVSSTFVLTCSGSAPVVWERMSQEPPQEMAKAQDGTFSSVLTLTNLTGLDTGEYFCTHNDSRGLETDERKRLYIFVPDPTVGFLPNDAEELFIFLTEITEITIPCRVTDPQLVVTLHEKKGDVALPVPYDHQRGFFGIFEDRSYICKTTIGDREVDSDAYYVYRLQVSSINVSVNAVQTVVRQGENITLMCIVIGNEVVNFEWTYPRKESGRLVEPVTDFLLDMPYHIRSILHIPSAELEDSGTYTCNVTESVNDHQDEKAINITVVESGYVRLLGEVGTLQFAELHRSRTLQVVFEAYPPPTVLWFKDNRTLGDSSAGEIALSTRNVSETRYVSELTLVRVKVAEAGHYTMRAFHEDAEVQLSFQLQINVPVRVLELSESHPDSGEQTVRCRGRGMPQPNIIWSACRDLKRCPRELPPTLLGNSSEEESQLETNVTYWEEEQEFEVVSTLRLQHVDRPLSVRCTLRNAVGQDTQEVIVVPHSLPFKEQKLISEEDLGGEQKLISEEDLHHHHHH
Test: SPR, mAb captured, 25 C
measurement.type: t1/2 (min)

>>> assay_result("H4H3096S (antibody, human IgG4, V domains shown, human IgG4 Fc (H4H prefix)) VH: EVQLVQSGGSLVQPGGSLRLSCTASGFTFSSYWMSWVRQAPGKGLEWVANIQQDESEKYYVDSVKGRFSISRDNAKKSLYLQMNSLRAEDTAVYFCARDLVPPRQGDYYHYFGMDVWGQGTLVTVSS VL: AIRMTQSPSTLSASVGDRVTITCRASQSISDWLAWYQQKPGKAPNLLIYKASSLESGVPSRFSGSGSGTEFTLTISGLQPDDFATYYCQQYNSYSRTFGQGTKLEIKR")
11
>>> assay_result("H1M3374N (antibody, V domains shown, mouse Fc format; also called H2M3374N) VH: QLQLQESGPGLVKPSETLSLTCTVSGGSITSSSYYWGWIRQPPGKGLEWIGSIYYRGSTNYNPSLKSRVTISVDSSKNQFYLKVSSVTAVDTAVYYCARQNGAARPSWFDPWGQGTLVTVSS VL: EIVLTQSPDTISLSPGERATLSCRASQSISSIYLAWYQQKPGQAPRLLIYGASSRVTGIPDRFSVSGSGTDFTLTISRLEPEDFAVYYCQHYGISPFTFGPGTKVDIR")
35
>>> assay_result("H2M3368N (antibody, V domains shown, mouse Fc (H2M prefix; isotype not spelled out)) VH: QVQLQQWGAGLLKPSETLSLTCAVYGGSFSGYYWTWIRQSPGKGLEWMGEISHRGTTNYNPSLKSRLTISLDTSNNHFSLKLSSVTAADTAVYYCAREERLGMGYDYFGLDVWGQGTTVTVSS VL: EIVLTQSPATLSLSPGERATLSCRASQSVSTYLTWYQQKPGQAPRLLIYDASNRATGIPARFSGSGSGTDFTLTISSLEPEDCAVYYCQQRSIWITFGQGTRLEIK")
34

Every entry's value here was drawn from patent US20170210813A1.
